experiment: LC50 on immune cells (cytotoxic effect, cell viability); assay type: cell-based; conditions: C57BL6; Monocytes, Mouse cells
Ends that are not written are not given here.
EXPERIMENTAL_READOUT: CC50
Give the value; after it, write the unit.

SUBSTANCE	CC50
ALWKTLLKKVGKVAGKAVLNAVTNMANQNEQ [DA2NEQ, ALWKTLLKKVGKVAGKAVLNAVTNMANQNEQOH]	7 µM

Let's switch to this substance now.
Measured CC50 of ALWKTLLKKVGKVAGKAVLNAVTNMANQN-OH [DA2N] : 5 µM

---

experiment: LC50 on immune cells (cytotoxic effect, cell viability); assay type: cell-based; settings: Monocytes, Human cells
Ends that are not written are not given here.
EXPERIMENTAL_READOUT: CC50 (µM)
Numbers only, in µM.

SUBSTANCE	UNITS_LABEL	NUMBER
ALWKTLLKKVGKVAGKAVLNAVTNMANQN-OH [DA2N]	µM	4

Record ALWKTLLKKVGKVAGKAVLNAVTNMANQNEQ [DA2NEQ, ALWKTLLKKVGKVAGKAVLNAVTNMANQNEQOH] , field CC50: 4

---

Would you kindly list CC50 for each of these substances?
assay: LC50 on immune cells (cytotoxic effect, cell viability); assay type: cell-based; conditions: Neutrophils, Human cells
Ends that are not written are not given here.
Kindly format the answer as number then unit.

SUBSTANCE	CC50
ALWKTLLKKVGKVAGKAVLNAVTNMANQN-OH [DA2N]	7.5 µM

// CC50 value for ALWKTLLKKVGKVAGKAVLNAVTNMANQNEQ [DA2NEQ, ALWKTLLKKVGKVAGKAVLNAVTNMANQNEQOH] : 7 µM
